The measured values listed here are drawn from the supplement of paper PMC11451515.

# Tested on: SEM cells
# assay: cell viability relative to DMSO control; higher = less cytotoxic
# measurement_parameters: HPLM + 10% dialyzed FBS; 48 h; 1.71 µM
reported_property: cell viability (%)
Response body: numeric value in %, unit text excluded.

CC(C)NCC(O)COc1ccc(CCOCC2CC2)cc1 (centres undefined) :: 90.4
O=C1CCc2ccc(OCCCCN3CCN(c4cccc(Cl)c4Cl)CC3)cc2N1 :: 89.2
OC(COC1=C2C(=O)\C=C(/OC2=CC=C1)C([O-])=O)COC3=C4C(=O)\C=C(/OC4=CC=C3)C([O-])=O :: 88

Here is another molecule to look at.
Report cell viability, nothing else, for this molecule: "COC1=CC2=C(C=C1OC)[C@H]3[C@@H](CO2)OC4=C(C=CC5=C4\C=C/C(C)(C)O5)C3=O"
91

====

# Test system: NOMO1
# assay: cell viability relative to DMSO control; higher = less cytotoxic
# measurement_parameters: RPMI 5 mM glucose + 10% dialyzed FBS; 48 h; 46.1 µM
Listing of entries alongside the reported cell viability.
Response body: numeric value in %, unit text excluded.

CC(C)[C@H](CO)Nc1nc(Nc2cccc(Cl)c2)c2ncn(C(C)C)c2n1 :: 3.06
O=C1N\2CCC3=C([NH]C4=C3C=CC=C4)C2=N/C5=CC=CC=C15 :: 124
CCN1C[C@]2(OC(=O)c3ccccc3NC(C)=O)CC[C@H](OC)[C@@]34[C@@H]2C[C@@H]([C@@H]13)[C@@]1(O)C[C@H](OC)[C@H]2C[C@@H]4[C@]1(O)[C@H]2OC :: 95.9
COC1(C[S+]([O-])c2ccccc2)CCN(CCc2c[nH]c3ccc(F)cc23)CC1 (stereo unspecified) :: 90.3
CCN(C)C(=O)Oc1cccc([C@H](C)N(C)C)c1 :: 110

Recall the reported cell viability of "N[C@@H](CC(=O)N1CCn2c(nnc2C(F)(F)F)C1)Cc1cc(F)c(F)cc1F" on NOMO1 and write it down.
79.5

====

# Tested on: P12-Ichikawa
# assay: cell viability relative to DMSO control; higher = less cytotoxic
# measurement_parameters: RPMI 5 mM glucose + 10% FBS; 48 h; 0.19 µM
Listing of entries alongside the reported cell viability.
Response body: numeric value in %, unit text excluded.

Check out these entries, answers already filled in.
C#C[C@]1(O)CC[C@H]2[C@@H]3CCc4cc(OC)ccc4[C@H]3CC[C@@]21C :: 106
C[S+]([O-])c1ccc(-c2nc(-c3ccc(F)cc3)c(-c3ccncc3)[nH]2)cc1 (centres undefined) :: 92.8
COc1ccc2c(c1OC)CN1CCc3cc4c(cc3C1C2)OCO4 (centres undefined) :: 89

Report cell viability, nothing else, for this compound: "NCC(=O)Nc1ccc(-n2nc(C(F)(F)F)cc2-c2ccc3c(ccc4ccccc43)c2)cc1"
120

====

Listing of entries alongside the reported AUC of viability dose-response curve.
# Test system: NOMO1
# assay: AUC of viability dose-response curve (% viability x log10 dose units); higher = less sensitive
# measurement_parameters: HPLM + 10% dialyzed FBS; 48 h
Give the figure only, with no unit attached.

O=C1NC(=O)/C(=C/c2cccc(C(F)(F)F)c2)S1 :: 448

Report AUC of viability dose-response curve, nothing else, for this compound: "O=C(CCCCCCC(=O)Nc1ccccc1)NO"
406

Report AUC of viability dose-response curve, nothing else, for this compound: COc1ccc2c(c1OC)CN1CCc3cc4c(cc3C1C2)OCO4 (stereo not drawn)
322

====

# Tested on: NOMO1
# assay: cell viability relative to DMSO control; higher = less cytotoxic
# measurement_parameters: RPMI 5 mM glucose + 10% dialyzed FBS; 48 h; 46.1 µM
reported_property: cell viability
A complete answer gives the number and then names the unit.

Check out these entries, answers already filled in.
O=C(NNC(=O)c1ccc(CN[S+](=O)([O-])c2ccc(F)c(Cl)c2)cc1)c1ccccc1 :: 115%
CC(NCc1ccc2c(c1)[nH]/c(=N\C(=O)c1ccc(-c3cn[nH]c3)s1)n2CC(C)(C)O)C(C)(C)C (stereo not given) :: 2.97%
O=C1NC(=O)/C(=C/c2cccc(C(F)(F)F)c2)S1 :: 92.2%

Report cell viability, nothing else, for this compound: CCNc1cc(NC2CCC(O)CC2)nc(Nc2ccc3c(ccn3Cc3ccccc3)c2)n1 (stereo not given)
106%

Report cell viability, nothing else, for this compound: "Cc1c(C(=O)Nc2cccc(C(F)(F)F)c2)cc(-c2ccccc2)n1CCCN1CCOCC1"
73.3%

Report cell viability, nothing else, for this compound: "COc1cc(N[S+](=O)([O-])c2ccc(N)cc2)nc(OC)n1"
111%

Report cell viability, nothing else, for this compound: "CCCCCCCCCCCCCCCCCCOP(=O)([O-])OC1CC[N+](C)(C)CC1"
84.7%

Report cell viability, nothing else, for this compound: "C[N+](C)([O-])CCNc1ccc(NCC[N+](C)(C)[O-])c2c1C(=O)c1c(O)ccc(O)c1C2=O"
44%

Report cell viability, nothing else, for this compound: "CC(=O)[C@H]1CC[C@H]2[C@@H]3CCC4=CC(=O)CC[C@]4(C)[C@H]3CC[C@]12C"
150%

Report cell viability, nothing else, for this compound: CC(C)NCC(O)c1ccc(NS(C)(=O)=O)cc1 (stereo not given)
117%
